All figures here come from patent US20230183352A1.

Biological target: Claudin 18.2 (CLDN18.2), expressed on CHOS-CLDN 18.2 / HEK293-CLDN 18.2 / HCC827-CLDN 18.2 cells (human, UniProt P56856-2 1-261)
Experiment: cell-based or functional assay
recorded_endpoint: Killing percentage, ADCC (PBMC, HEK293-CLDN18.2 cells), 0.00256 µg/ml (%)
Provide only the numeric value, understood in %.

[Q] Dear colleague, I am looking for the recorded Killing percentage, ADCC (PBMC, HEK293-CLDN18.2 cells), 0.00256 µg/ml of the following binder: QP024025 (antibody, human IgG1, V domains shown, also called IMAB362; 175D10(IMAB362)) VH: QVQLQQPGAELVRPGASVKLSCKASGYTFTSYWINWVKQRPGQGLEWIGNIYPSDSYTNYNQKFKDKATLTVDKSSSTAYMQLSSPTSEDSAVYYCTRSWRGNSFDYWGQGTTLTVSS VL: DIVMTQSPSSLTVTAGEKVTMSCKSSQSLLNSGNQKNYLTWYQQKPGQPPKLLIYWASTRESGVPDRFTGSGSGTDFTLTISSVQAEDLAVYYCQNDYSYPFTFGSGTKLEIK
[A] 1.49

[Q] Dear colleague, I am looking for the recorded Killing percentage, ADCC (PBMC, HEK293-CLDN18.2 cells), 0.00256 µg/ml of the following binder: QP14631461 (antibody, human IgG1, kappa, V domains shown, also called QP14611463) VH: QVQLVQSGAEVKKPGASVKVSCKASGYTFTSYIMHWVRQAPGQGLEWMGYINPYNDGTKYNEKFKGRVTMTRDTSTSTVYMELSSLRSEDTAVYYCARLGFTTRNAMDYWGQGTLVTVSS VL: DIVMTQSPDSLAVSLGERATINCKSSQSLLNSGNQKNYLAWYQQKPGQPPKLLIYGASTRESGVPDRFTGSGSGTDFTLTISSLQAEDVAVYYCQNDHSYPFTFGQGTKLEIKR
[A] 10.2

[Q] Dear colleague, I am looking for the recorded Killing percentage, ADCC (PBMC, HEK293-CLDN18.2 cells), 0.00256 µg/ml of the following binder: QP14371433 (antibody, human IgG1, kappa, V domains shown, Humanized from QP190191; also called QP14331437) VH: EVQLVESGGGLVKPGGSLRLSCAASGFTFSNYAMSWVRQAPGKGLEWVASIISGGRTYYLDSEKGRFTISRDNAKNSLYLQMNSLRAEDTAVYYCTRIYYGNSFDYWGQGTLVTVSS VL: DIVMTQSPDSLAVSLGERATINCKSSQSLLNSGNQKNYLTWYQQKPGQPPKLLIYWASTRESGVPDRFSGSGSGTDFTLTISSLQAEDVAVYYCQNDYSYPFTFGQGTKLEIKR
[A] 13.3
